ASSAYED SYSTEM: T1, 4H932-bA
T1 chain: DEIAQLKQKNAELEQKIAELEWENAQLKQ
PROCEDURE DETAILS: two-hybrid library CCNG1;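 also: natural log of median RNA to DNA barcode read ratio; higher means stronger binding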
MEASUREMENT TYPE: interaction score

a. DKIAQLEQKNAELKQENAELEWKIAQLKQ [4H2518-bA]
b. DKNAQLEQENAELKQKIAELEWEIAQLEQ [4H3297-bA]
Which entry has a larger number for interaction score, a or b ? // output: label of the selected item
b
(b: -0.454, a: -1.08)

P. DEIAQLEQKIAELKQENAELKWKIAQLEQ [4H349-bA]
Q. DEIAQLKQKIAELEQENAELKWENAQLKQ [4H796-bA]
Could you point out whether the larger interaction score belongs to P or to Q ? Pick one and reply with its label.
Q
(Q: -0.164, P: -0.919)
